Ref: the supplement of paper PMC11865577

Test system: TO-N3 (biotin conjugate)
Assay method text: pull-down binding Z-score (relative to library population); higher = stronger binding
Test settings: RNA library: Library-2
Reported pull-down binding Z-score by item:

{"columns": ["Record sequence", "pull-down binding Z-score"],
 "data": [
  ["GAGUCCUCAUCGGAGGACUU [IAV_invivo_NS1_NEP_8_Motif_11+IAV_invivo_NS1_NEP_8_Motif_11]", -0.729],
  ["CCAAGCUUAGUUUGG [hsa-mir-1302-11_1302-10_1302-3_1302-2_1302-9]", 0.572],
  ["CCUAGUGGCUAGCCCUGGGUCUAGCAGCCUAUGGCAGUGUCUGGUAAACACUGGUGGAGUCCUGGG [hsa-mir-6745]", 0.336],
  ["GUUCCUGUGAUUUUUC [hsa-mir-198]", -0.29],
  ["UUGAAUCACACACACAUUUCAA [hsa-mir-4803]", -0.366],
  ["CACUCAAAGGCGGUGCACCAACAAAGGUUACUUUUGGUGAUGACACUGUGAUAGAAGUG [DMSMaPseq_invitro_SARS-CoV-2_Motif_50]", -0.234],
  ["CCAGGCCACAUAAUGAGCCAAA [hsa-mir-6771]", 0.899],
  ["UGGCCAUGGUACAUUUGGCUA", 0.286],
  ["GUCUCUAUAGAAAUAGAGAU", -0.156],
  ["UCCACCUAGACGGGCCUGGGUCAA [hsa-mir-4698]", 0.552],
  ["UACCUUUUGCUAUGGGUA", -0.582],
  ["GUGUAUGGGCUGAGCCUUGC [hsa-mir-6805]", 0.44],
  ["ACAUAGCAGUGGUGUUACCCGUGAACUCAUGCGUGAGCUUAACGGAGGGGCAUACACUCGCUAUGU", -0.015],
  ["AGUUUACGCCCUGACACACGUUAUGUGCUCAUGGAUGGCU", -0.719],
  ["UGGCUUCUGCCUCUUUCUUUGUGGAAGCCA [hsa-mir-4269]", -0.118],
  ["UGCUAUUACUUGUAUUUAUUUGUAAUGCA [hsa-mir-548ab]", -1.33],
  ["CGUUCGGAUGCUCGAACUGCACCUCAUGGUCAUGUUAUGGUUGAGCUGGUAGCAGAACUCGAAGGCAUUCAGUACG [SHAPE_invitro_SARS-CoV-2_Motif_11]", 0.0804],
  ["CGCUAGUAGUGGCG [hsa-mir-3960]", -0.435],
  ["GGUAAGGUCUUUCAGCC [hsa-mir-7150]", 0.622],
  ["UUUGUGUAAGGAAUUUUGUGGUCACAAA [hsa-mir-10a]", -1.25],
  ["CCACUACCGGUGA [hsa-mir-4658]", -0.127],
  ["GUCUAAUCUCAAACCUUUUGAGAGAGAU", -1.19],
  ["AACCAUACAGGUGUUGUUGGAGAAGGUU [DMSMaPseq_invitro_SARS-CoV-2_Motif_31]", -0.0691],
  ["GCUGAGCCCUUUGAUAAGGGGGAGGUU [hsa-mir-8080]", 0.361],
  ["CAUGCGCUAUCUCUGUGUCGUAUG [hsa-mir-380]", -0.0621],
  ["CUUUCUGUUGUCUGAGAGAAAAGAAAG [hsa-mir-520a]", -0.74],
  ["ACAUUACACCAUGU [SHAPE_invivo_SARS-CoV-2_Motif_439]", -1.07],
  ["ACGCGCUGUGACACUUCAAACUCGU [hsa-mir-126]", 0.062],
  ["UUUUCAUGACAACCCUAUAUGGGAAAAUGUUGUGAAAA [hsa-mir-3646]", -1.1],
  ["UAAUUCUUGGCUUAUGUGGUUAAUAAUUA [DMSMaPseq_invitro_SARS-CoV-2_Motif_139]", -0.293],
  ["AGCGCGAAAGU [hsa-mir-1539]", 0.054],
  ["GUUCUCUAUGAGAAC", 0.0284],
  ["UGCUUUGGUGUAAAGAUGGCCAUGUAGAAACAUUUUACCCAAAAUUACAAUCUAGUCAAGCGUGGCAACCGGGUGUUGCUAUGCCUAAUCUUUACAAAAUGCA", 0.0858],
  ["AUGCCUUUUUACCUUUUGCUAUGGGUAUUAUUGCUAUGUCUGCUUUUGCAAUGAUGUUUGUCAAACAUAAGCAUGCAU [DMSMaPseq_invitro_SARS-CoV-2_Multi_36_ComplexLevel_1]", 0.0122],
  ["UGUGGUAAACAAGCUACA", -0.766],
  ["CUUUUAUGUCUAUGCUAAUGGAGGUAAAGG [SHAPE_invivo_SARS-CoV-2_Motif_154]", -0.68],
  ["GAUCCGGGAACCCACAGCCCCGUUC [hsa-mir-6783]", 0.886],
  ["UUUUGCUAUUACUUUUAAAGGCAAAA [hsa-mir-548e]", -0.0747],
  ["ACAACAGGAGUCACCUUUUGU [DMSMaPseq_invitro_SARS-CoV-2_Motif_108]", -1.15],
  ["CUCAAUGUAGUCUUGUAAGGAACAGGUUGAAG [hsa-mir-595]", 0.268],
  ["CAGAGUACUCAAUGGUCUUUG", -0.395]
]}
